Exercise: for every item that follows, state its recorded % Efficacy A3.
- test-target: UniProt P0DMS8
- measurement-protocol: [35S]GTPγS binding assay, membranes of CHO cells expressing human A3AR
- Assay type: biochemical
- condition-notes: stimulation measured by [35S]GTPγS binding assay
Give bare numbers, in %.

// solved cases for % Efficacy A3 follow
> print(dat)
                                   compound     test.target  test.value
1  O[C@@H]1[C@H](O)[C@@H]2C[C@@H]2[C@H]1n1cnc2c(NCc3cccc(Cl)c3)nc(Cl)nc21 [Compound 8b]  UniProt P0DMS8         2.9
2  O[C@@H]1[C@H](O)[C@@H]2C[C@@H]2[C@H]1n1cnc2c(NCc3cccc(I)c3)nc(Cl)nc21 [Compound 7b]  UniProt P0DMS8         1.0
3  COc1ccc(O)c(CNc2nc(Cl)nc3c2ncn3[C@H]2[C@H](O)[C@H](O)[C@@H]3C[C@@H]32)c1 [Compound 12b]  UniProt P0DMS8         0.4
4  O[C@@H]1[C@H](O)[C@@H]2C[C@@H]2[C@H]1n1cnc2c(N[C@@H]3C[C@H]3c3ccccc3)nc(Cl)nc21 (relative stereo) [Compound 13b]  UniProt P0DMS8         9.7

# ---- query compound ----
Lookup result for COc1ccc(OC)c(CNc2nc(Cl)nc3c2ncn3[C@H]2[C@H](O)[C@H](O)[C@@H]3C[C@@H]32)c1 [Compound 11b] ; measured % Efficacy A3: 4.6

---

- measurement-protocol: in vivo
- condition-notes: mouse, ip
measurement-type: TD50

Lookup result for O[C@@H]1[C@H](O)[C@@H]2C[C@@H]2[C@H]1n1cnc2c(NC(C3CC3)C3CC3)nc(Cl)nc21 [Compound 121] ; measured TD50: > 10 mg/kg

---

- test-target: human A3 receptor (Homo sapiens (Human), UniProt P0DMS8)
- Sequence (P0DMS8 whole entry): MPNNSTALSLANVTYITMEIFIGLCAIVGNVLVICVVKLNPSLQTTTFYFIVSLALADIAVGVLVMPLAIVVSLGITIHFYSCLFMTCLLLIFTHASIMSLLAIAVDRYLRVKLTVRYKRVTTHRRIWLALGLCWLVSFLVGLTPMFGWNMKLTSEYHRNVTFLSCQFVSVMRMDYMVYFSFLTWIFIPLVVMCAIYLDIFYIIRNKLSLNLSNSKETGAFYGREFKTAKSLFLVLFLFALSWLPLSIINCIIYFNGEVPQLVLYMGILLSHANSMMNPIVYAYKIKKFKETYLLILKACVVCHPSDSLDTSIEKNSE
- measurement-protocol: Binding assay at the human A3 receptor (Example 2)
- condition-notes: CHO cells expressing human A3AR; radioligand [125I]I-AB-MECA; n = 3-5; read-out: Affinity (Ki, nM) A3
measurement-type: Ki

Lookup result for O[C@@H]1[C@H](O)[C@@H]2C[C@@H]2[C@H]1n1cnc2c(NCc3cccc(I)c3)nc(Cl)nc21 [Compound 7b] ; measured Ki: 1.44 nM

---

- test-target: UniProtKB P30542
- Sequence (P30542 whole entry): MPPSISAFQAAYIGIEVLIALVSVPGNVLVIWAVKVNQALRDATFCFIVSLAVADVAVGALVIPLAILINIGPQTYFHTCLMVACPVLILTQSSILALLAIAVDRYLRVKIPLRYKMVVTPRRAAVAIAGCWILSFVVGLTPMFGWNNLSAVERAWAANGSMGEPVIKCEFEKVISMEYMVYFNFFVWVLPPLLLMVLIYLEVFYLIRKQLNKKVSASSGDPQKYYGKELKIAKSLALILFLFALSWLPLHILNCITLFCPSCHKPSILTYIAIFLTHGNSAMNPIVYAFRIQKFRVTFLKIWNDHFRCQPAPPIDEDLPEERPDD
- measurement-protocol: Binding assay at human A1 receptors (Example 2)
- condition-notes: CHO cells expressing human A1AR; radioligand [3H]CCPA or [3H]R-PIA; n = 3-5; read-out: Affinity (Ki, nM) A1
Exercise: for every item that follows, state its recorded Ki.
One number for each entry, in nM.

> print(dat)
                                   compound  measurement.type  endpoint.unit  test.value
1  O[C@@H]1[C@H](O)[C@@H]2C[C@@H]2[C@H]1n1cnc2c(NCc3cccc(Cl)c3)nc(Cl)nc21                Ki             nM        3070

Parameter requested: Ki. Apply to each item below.
1. COc1ccc(O)c(CNc2nc(Cl)nc3c2ncn3[C@H]2[C@H](O)[C@H](O)[C@@H]3C[C@@H]32)c1 [Compound 12b]
2. O[C@@H]1[C@H](O)[C@@H]2C[C@@H]2[C@H]1n1cnc2c(NCc3cccc(Br)c3)nc(Cl)nc21

Response line:
1. 1110
2. 1760

---

- test-target: UniProt P0DMS8
- measurement-protocol: Radioligand membrane binding at hA3AR (Example 6)
- condition-notes: CHO cells expressing hA3AR; [125I]I-AB-MECA; n = 3-5; read-out: Affinity Ki, nM A3
Exercise: for every item that follows, state its recorded Ki.
Answers are plain numbers, in nM.

// solved cases for Ki follow
> print(dat)
                                   compound  endpoint.unit  test.value
1  CC(C)[C@@H](Nc1nc(Cl)nc2c1ncn2[C@H]1[C@H](O)[C@H](O)[C@@H]2C[C@@H]21)C1CC1             nM         780
2  COc1ccc(F)c(F)c1CNc1nc(Cl)nc2c1ncn2[C@H]1[C@H](O)[C@H](O)[C@@H]2C[C@@H]21             nM        16.5
3  O[C@@H]1[C@H](O)[C@@H]2C[C@@H]2[C@H]1n1cnc2c(NCc3ccccc3OCCF)nc(Cl)nc21             nM        10.3
4  O[C@@H]1[C@H](O)[C@@H]2C[C@@H]2[C@H]1n1cnc2c(N[C@H](C3CCC3)C3CC3)nc(Cl)nc21             nM        2790
5  CC(Nc1nc(Cl)nc2c1ncn2[C@H]1[C@H](O)[C@H](O)[C@@H]2C[C@@H]21)C1CC1 (stereo partly shown)             nM         110

Parameter requested: Ki. Apply to each item below.
1. CC[C@H](Nc1nc(Cl)nc2c1ncn2[C@H]1[C@H](O)[C@H](O)[C@@H]2C[C@@H]21)C1CC1
2. CCC(CC)Nc1nc(Cl)nc2c1ncn2[C@H]1[C@H](O)[C@H](O)[C@@H]2C[C@@H]21

Response line:
780
52

These data points were gathered from patent US9181253B2.
